Test system: NCI-H226
Experiment: NCI tumour cell line growth inhibition, 48 h
The source made the active and inactive calls. No stated cut-off is given here; in the data, active = GI50 up to about 1.1 µM and inactive = higher.
Exercise: for every item that follows, state its recorded GI50.

Please state GI50 for every molecule in the list that follows.
1. COc1ccc(Nc2nc3cc(C(F)(F)F)ccc3nc2-c2ccccc2)cc1OC
2. O=C(Nc1cc(Cl)c(Cl)cc1Cl)C(=O)C(C(=O)c1ccccc1)C1OC(=O)c2ccccc21 (centres undefined)
3. O=C(CCl)Nc1ccc(-c2nc3ccccc3s2)cc1

## Output
1: 15.8 µM (inactive); 2: > 100 µM (inactive); 3: 1.43 µM (inactive)

* * *

System: LOX IMVI
Experiment: NCI tumour cell line growth inhibition, 48 h
Calls of active or inactive are those of the source. No stated cut-off is given here; in the data, active = GI50 up to about 1.1 µM and inactive = higher.
Respond using exactly one of the listed classes: t = active, f = inactive

Some solved entries appear below for comparison.
CSc1cc(-c2ccccn2)nc(-c2ccccn2)c1    t
N#Cc1nc(C#N)c(NC(=O)c2ccccc2C(=O)O)[nH]1    f
O=P(Oc1ccc2ccccc2c1)(N1CC1)N1CC1    f
COc1cc2cc(C(=O)N3CC(CCl)c4ccc([N+](=O)[O-])cc43)[nH]c2c(OC)c1OC (stereo unspecified)    f
Cc1c(C(=O)C/C(=N/NC(=O)c2ccccc2)C(=O)Nc2ccc(Cl)cc2)[n+]([O-])c2ccccc2[n+]1[O-]    f
C(=C\N1CCCCC1)/c1nnnn1-c1ccccc1    f
CC1(C)[C@H]2Cc3cc(-c4cc5c(cn4)[C@@H]4C[C@H]([C@@H]5[C@@H]5c6cc(-c7cc8c(cn7)[C@@H]7C[C@H](C8)C7(C)C)ncc6[C@@H]6C[C@H]5C6(C)C)C4(C)C)ncc3[C@@H]1C2    f
CCOC(=O)/C(=C\NCC(OCC)OCC)c1nc2ccccc2[nH]1    f
O=c1cc2n(c(=O)[nH]1)C1OC(C(O)C1O)[C@@H]2CCO (stereo partly specified)    f
O=c1c(C(c2ccc(/C=C/c3ccccc3)cc2)c2c(O)oc3cc(O)ccc3c2=O)c(O)oc2cc(O)ccc12    f

## Input Status in this test for C=C1CCCCCCCCCCC12SCCC2CCCCSC (stereo unspecified) ?
## Output f

## Input Status in this test for CCOC(=O)/C=C(\C(=O)OCC)n1cnc2c(N)ncnc21 ?
## Output f

## Input Status in this test for CC(C)[Si]1(C(C)C)OCC2OC(n3ccc(=O)[nH]c3=O)C([Se]c3ccccc3)C2O[Si](C(C)C)(C(C)C)O1 (stereo unspecified) ?
## Output t

## Input Status in this test for Cc1ccc2c3c1O[C@H]1c4[nH]c5ccccc5c4C[C@@]4(O)[C@@H](C2)N(C)CC[C@]314 ?
## Output f

## Input Status in this test for CCCCCC#COC1CC(C)CC[C@@H]1C(C)C (stereo partly specified) ?
## Output f
